FYI, the data here is from paper PMC3486420.

biological target: PPARδ (Homo sapiens); construct: expressed in transfected cells; host or cells: SMMC-7721 or U2OS; experiment: PPARδ transactivation reporter gene assay in U2OS cells; type: cell-based
Sequence (Q03181 whole entry): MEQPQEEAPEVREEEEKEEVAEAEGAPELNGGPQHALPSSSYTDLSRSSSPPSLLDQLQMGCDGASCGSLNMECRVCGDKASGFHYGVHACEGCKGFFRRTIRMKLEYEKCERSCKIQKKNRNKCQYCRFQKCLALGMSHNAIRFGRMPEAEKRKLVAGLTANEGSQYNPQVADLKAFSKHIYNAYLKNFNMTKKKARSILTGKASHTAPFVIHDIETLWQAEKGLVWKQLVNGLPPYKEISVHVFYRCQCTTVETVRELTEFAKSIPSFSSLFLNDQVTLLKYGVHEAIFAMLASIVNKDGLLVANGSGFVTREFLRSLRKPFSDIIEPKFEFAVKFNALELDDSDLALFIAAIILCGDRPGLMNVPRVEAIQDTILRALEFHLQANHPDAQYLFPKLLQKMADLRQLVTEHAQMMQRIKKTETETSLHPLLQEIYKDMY
Sequence (P19793 whole entry partner): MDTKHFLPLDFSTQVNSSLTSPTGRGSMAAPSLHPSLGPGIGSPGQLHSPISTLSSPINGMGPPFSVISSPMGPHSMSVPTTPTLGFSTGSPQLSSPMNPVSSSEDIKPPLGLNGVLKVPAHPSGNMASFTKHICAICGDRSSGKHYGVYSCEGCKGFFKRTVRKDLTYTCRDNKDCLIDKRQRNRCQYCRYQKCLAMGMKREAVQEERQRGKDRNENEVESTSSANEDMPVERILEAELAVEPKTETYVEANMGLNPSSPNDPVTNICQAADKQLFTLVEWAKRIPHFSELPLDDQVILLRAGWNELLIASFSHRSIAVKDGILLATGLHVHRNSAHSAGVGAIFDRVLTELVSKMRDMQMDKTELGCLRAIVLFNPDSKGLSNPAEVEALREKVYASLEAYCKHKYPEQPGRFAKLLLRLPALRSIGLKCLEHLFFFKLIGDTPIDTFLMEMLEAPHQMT
quantityKind: EC50 (µM)
The figure you give is taken to be in µM; do not add the unit.

Query block: Please report the recorded EC50 for CCCCCCCCCCCCCCC(Br)C(=O)O (stereo not shown) [2-Bro, 2-bromohexadecanoic acid, reference compound] .
Result block: 9.2
